Reported IC50 values for the following compounds.
- measuredOn: MAP kinase p38 (Homo sapiens, UniProt O15264+Q15759+Q16539+P53778)
- measurementNotes: Inhibition of p38-related IL1-beta release by whole blood cells at 10 e-4 to 10 e-8 M
- Type: functional

| compound | readoutUnits | IC50 |
| --- | --- | --- |
| CSc1nc(-c2ccc(F)cc2)c(-c2ccnc(OC(C)C)c2)[nH]1 | µM | 2.2 |
| CSc1nc(-c2ccc(F)cc2)c(-c2ccncc2)n1C | µM | 1.08 |
| CCNc1cc(-c2c(-c3ccc(F)cc3)nc(SC)n2C2CC(C)(C)NC(C)(C)C2)ccn1 | µM | 2.7 |
| CSc1nc(-c2ccc(F)cc2)c(-c2ccnc(NC(C)=O)c2)n1C | µM | 10.8 |
| CSc1nc(-c2ccc(F)cc2)c(-c2ccnc(NC(C)=O)c2)n1C1CC(C)(C)NC(C)(C)C1 | µM | 2.15 |
| CSc1nc(-c2ccc(F)cc2)c(-c2ccncc2)n1C1CC(C)(C)NC(C)(C)C1 | µM | 18.5 |
| CCNc1cc(-c2c(-c3ccc(F)cc3)nc(SC)n2C)ccn1 | µM | 2 |
| CSc1nc(-c2ccc(F)cc2)c(-c2ccnc(NC(C)c3ccccc3)c2)n1C (centres undefined) | µM | 4.1 |
| CSc1nc(-c2ccc(F)cc2)c(-c2ccncc2)[nH]1 | µM | 1.2 |

---

- measuredOn: CYP2C9 (Homo sapiens)
- Sequence (P11712 whole entry): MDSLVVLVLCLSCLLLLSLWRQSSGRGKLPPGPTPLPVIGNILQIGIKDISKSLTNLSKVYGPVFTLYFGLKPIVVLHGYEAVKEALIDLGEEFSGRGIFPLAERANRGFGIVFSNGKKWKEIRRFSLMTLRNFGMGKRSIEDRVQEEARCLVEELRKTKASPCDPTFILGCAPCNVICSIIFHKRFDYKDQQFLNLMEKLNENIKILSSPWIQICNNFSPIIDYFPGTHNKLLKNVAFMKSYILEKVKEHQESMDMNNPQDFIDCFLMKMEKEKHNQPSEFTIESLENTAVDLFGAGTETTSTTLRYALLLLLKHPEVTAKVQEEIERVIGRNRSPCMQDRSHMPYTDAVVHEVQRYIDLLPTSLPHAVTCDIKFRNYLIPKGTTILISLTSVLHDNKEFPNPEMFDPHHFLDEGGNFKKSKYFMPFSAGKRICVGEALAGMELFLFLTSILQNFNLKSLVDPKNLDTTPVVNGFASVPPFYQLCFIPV
- measurementNotes: Inhibition of Cytochrome P450 2C9 at 10 uM
- Format: ADME
Each item that follows carries a reported inhibition at 10 µM.

| compound | readoutUnits | inhibition at 10 µM |
| --- | --- | --- |
| C[S+]([O-])c1ccc(CSc2nc(-c3ccc(F)cc3)c(-c3ccncc3)[nH]2)cc1 (stereo not given) | % | 72.7 |
| CSc1nc(-c2ccc(F)cc2)c(-c2ccncc2)n1C1CC(C)(C)NC(C)(C)C1 | % | 7.9 |
| CSc1nc(-c2ccc(F)cc2)c(-c2ccncc2)[nH]1 | % | 72.4 |
| CSc1nc(-c2ccc(F)cc2)c(-c2ccnc(Cl)c2)[nH]1 | % | 65 |
| CSc1nc(-c2ccc(F)cc2)c(-c2ccnc(NC(C)=O)c2)n1C | % | 27.6 |
| CSc1nc(-c2ccc(F)cc2)c(-c2ccnc(NC(C)c3ccccc3)c2)n1C (stereo not given) | % | 83.3 |
| CSc1nc(-c2ccc(F)cc2)c(-c2ccnc(NC(C)=O)c2)n1C1CC(C)(C)NC(C)(C)C1 | % | 2.6 |
| CSc1nc(-c2ccc(F)cc2)c(-c2ccnc(OC(C)C)c2)[nH]1 | % | 67.5 |
| C[S+]([O-])c1ccc(-c2nc(-c3ccncc3)c(-c3ccc(F)cc3)[nH]2)cc1 (stereo not given) | % | 75 |
| CSc1nc(-c2ccc(F)cc2)c(-c2ccnc(NC(C)c3ccccc3)c2)[nH]1 (stereo not given) | % | 79 |

---

- measuredOn: MAP kinase p38 (Homo sapiens, UniProt O15264+Q15759+Q16539+P53778)
- measurementNotes: Inhibitory activity against mitogen-activated protein kinase p38 at 10 e-4 to 10 e-8 M concentration
- Assay type: protein assay

| compound | measuredOn | IC50 [nM] |
| --- | --- | --- |
| Fc1ccc(-c2[nH]c(SCc3ccccc3)nc2-c2ccnc(NCc3ccccc3)c2)cc1 | MAP kinase p38 (Homo sapiens, UniProt O15264+Q15759+Q16539+P53778) | 1420 |
| CC(Nc1cc(-c2[nH]c(SCc3ccccc3)nc2-c2ccc(F)cc2)ccn1)c1ccccc1 (centres undefined) | MAP kinase p38 (Homo sapiens, UniProt O15264+Q15759+Q16539+P53778) | 380 |
| CSc1nc(-c2ccc(F)cc2)c(-c2ccnc(NCc3ccccc3)c2)[nH]1 | MAP kinase p38 (Homo sapiens, UniProt O15264+Q15759+Q16539+P53778) | 650 |
| CCNc1cc(-c2c(-c3ccc(F)cc3)nc(SC)n2C)ccn1 | MAP kinase p38 (Homo sapiens, UniProt O15264+Q15759+Q16539+P53778) | 700 |
| COc1ccc(CNc2cc(-c3[nH]c(SC)nc3-c3ccc(F)cc3)ccn2)cc1 | MAP kinase p38 (Homo sapiens, UniProt O15264+Q15759+Q16539+P53778) | 790 |
| CSc1nc(-c2ccc(F)cc2)c(-c2ccnc(NCc3ccc(Cl)c(Cl)c3)c2)[nH]1 | MAP kinase p38 (Homo sapiens, UniProt O15264+Q15759+Q16539+P53778) | 700 |
| C[S+]([O-])c1ccc(CSc2nc(-c3ccc(F)cc3)c(-c3ccnc(NCc4ccccc4)c3)[nH]2)cc1 (centres undefined) | MAP kinase p38 (Homo sapiens, UniProt O15264+Q15759+Q16539+P53778) | 1450 |
| CSc1nc(-c2ccc(F)cc2)c(-c2ccnc(Nc3ccccc3)c2)[nH]1 | MAP kinase p38 (Homo sapiens, UniProt O15264+Q15759+Q16539+P53778) | 130 |
| CSc1nc(-c2ccc(F)cc2)c(-c2ccnc(NCCc3ccccc3)c2)[nH]1 | MAP kinase p38 (Homo sapiens, UniProt O15264+Q15759+Q16539+P53778) | 240 |

---

- measuredOn: CYP2D6 (Homo sapiens)
- Sequence (P10635 whole entry): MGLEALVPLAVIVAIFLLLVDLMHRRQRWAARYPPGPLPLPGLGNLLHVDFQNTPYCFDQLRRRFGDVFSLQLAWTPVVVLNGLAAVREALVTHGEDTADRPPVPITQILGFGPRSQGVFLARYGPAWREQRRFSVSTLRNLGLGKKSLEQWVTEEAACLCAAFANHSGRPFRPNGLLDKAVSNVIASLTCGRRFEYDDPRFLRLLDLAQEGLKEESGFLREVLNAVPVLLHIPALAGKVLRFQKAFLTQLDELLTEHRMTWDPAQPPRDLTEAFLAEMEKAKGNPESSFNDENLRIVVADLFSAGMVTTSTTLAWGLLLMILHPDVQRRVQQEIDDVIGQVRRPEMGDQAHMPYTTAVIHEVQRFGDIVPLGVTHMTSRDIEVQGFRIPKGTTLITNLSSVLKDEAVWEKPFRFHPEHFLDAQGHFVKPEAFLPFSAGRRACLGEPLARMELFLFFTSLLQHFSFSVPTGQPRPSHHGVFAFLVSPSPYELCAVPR
- measurementNotes: Inhibition of Cytochrome P450 2D6 at 10 uM
- Format: ADME
endpointLabel: inhibition at 10 µM (%)

| compound | endpointLabel | readoutUnits | censoringSign | recordedResult |
| --- | --- | --- | --- | --- |
| CSc1nc(-c2ccc(F)cc2)c(-c2ccnc(NC(C)c3ccccc3)c2)n1C (centres undefined) | inhibition at 10 µM | % | = | 12.4 |
| CSc1nc(-c2ccc(F)cc2)c(-c2ccncc2)[nH]1 | inhibition at 10 µM | % | = | 39.8 |
| CSc1nc(-c2ccc(F)cc2)c(-c2ccnc(NC(C)=O)c2)n1C | inhibition at 10 µM | % | = | 13.4 |
| CSc1nc(-c2ccc(F)cc2)c(-c2ccnc(OC(C)C)c2)[nH]1 | inhibition at 10 µM | % | < | 0 |

---

Here the recorded log10 IC50 is given for each entry.
- measuredOn: MAP kinase p38 (Homo sapiens, UniProt O15264+Q15759+Q16539+P53778)
- measurementNotes: Inhibitory activity against induction of IL-1-beta release in PBMCs
- Assay type: functional
endpointLabel: log10 IC50 (log10 of the value in nM)

| compound | log10 IC50 |
| --- | --- |
| C[S+]([O-])c1ccc(CSc2nc(-c3ccc(F)cc3)c(-c3ccnc(NCc4ccccc4)c3)[nH]2)cc1 (stereo not drawn) | 2.67 |
| CSc1nc(-c2ccc(F)cc2)c(-c2ccnc(NCc3ccccc3)c2)[nH]1 | 2.03 |
| COc1cc(-c2[nH]c(SC)nc2-c2ccc(F)cc2)ccn1 | 2.18 |
| CCNc1cc(-c2c(-c3ccc(F)cc3)nc(SC)n2C)ccn1 | 1.85 |
| CSc1nc(-c2ccc(F)cc2)c(-c2ccnc(OC(C)C)c2)[nH]1 | 1.67 |
| C[S+]([O-])c1ccc(CSc2nc(-c3ccc(F)cc3)c(-c3ccnc(F)c3)[nH]2)cc1 (stereo not drawn) | 3.39 |
| CSc1nc(-c2ccc(F)cc2)c(-c2ccnc(NC(C)=O)c2)n1C1CC(C)(C)NC(C)(C)C1 | 2.66 |
| CSc1nc(-c2ccc(F)cc2)c(-c2ccnc(Nc3ccccc3)c2)[nH]1 | 1.48 |
| CSc1nc(-c2ccc(F)cc2)c(-c2ccnc(NC(C)c3ccccc3)c2)n1C (stereo not drawn) | 1.18 |
| CSc1nc(-c2ccc(F)cc2)c(-c2ccnc(O)c2)[nH]1 | 2.70 |
| CSc1nc(-c2ccc(F)cc2)c(-c2ccnc(F)c2)[nH]1 | 2.48 |
| CSc1nc(-c2ccc(F)cc2)c(-c2ccnc(NCc3ccc(Cl)c(Cl)c3)c2)[nH]1 | 2.36 |
| CSc1nc(-c2ccc(F)cc2)c(-c2ccnc(N(C)Cc3ccccc3)c2)[nH]1 | 3.43 |
| Fc1ccc(-c2[nH]c(SCc3ccccc3)nc2-c2ccnc(NCc3ccccc3)c2)cc1 | 2.30 |
| C[S+]([O-])c1ccc(CSc2nc(-c3ccc(F)cc3)c(-c3ccnc(Cl)c3)[nH]2)cc1 (stereo not drawn) | 3.32 |
| CC(Nc1cc(-c2[nH]c(SCc3ccc([S+](C)[O-])cc3)nc2-c2ccc(F)cc2)ccn1)c1ccccc1 (stereo not drawn) | 1.60 |
| CC(Nc1cc(-c2[nH]c(SCc3ccccc3)nc2-c2ccc(F)cc2)ccn1)c1ccccc1 (stereo not drawn) | 1.65 |
| CSc1nc(-c2ccc(F)cc2)c(-c2ccnc(NCc3ccccc3)c2)n1C | 1.91 |
